All values here come from ChEMBL document CHEMBL1125801.

tested on: P388; experiment: Cytotoxic activity against P388 mouse lymphocytic leukemia cell line; assay type: functional; settings: read-out: ED50 (the source's name)
pEC50: −log10 of the molar value.
Label rule, in plain words: pEC50 of 7 and up is satisfied, under 7 is not satisfied.

Recorded results for 5 molecules are shown here.
molecule: CC/N=c1/ccc2c(cc1O)C(NC(C)=O)CCc1cc(OC)c(OC)c(OC)c1-2 (centres undefined)
group: satisfied
//
molecule: COc1cc2c(c(OC)c1OC)-c1cc/c(=N/CC(F)(F)F)c(O)cc1C(NC(=O)C(F)(F)F)CC2 (centres undefined)
group: satisfied
//
molecule: COc1cc2c(c(OC)c1OC)-c1ccc(=N)c(O)cc1C(NC(=O)C(F)(F)F)CC2 (centres undefined)
group: satisfied
//
molecule: COc1cc2c(c(OC)c1OC)-c1ccc(=O)c(O)cc1C(NC(=O)C(F)(F)F)CC2 (centres undefined)
group: not satisfied
//
molecule: COc1cc2c(c(OC)c1OC)-c1ccc(OC)c(=O)cc1[C@@H](NC(C)=O)CC2
group: satisfied

Hi team, for COc1cc2c(c(OC)c1OC)-c1ccc(=O)c(OC)cc1C(NC(=O)C(F)(F)F)CC2 (centres undefined) , is the recorded pEC50 at or above 7?
not satisfied

Hi team, for COc1cc2c(c(OC)c1OC)-c1ccc(=O)c(OC)cc1C(NC(C)=O)CC2 (centres undefined) , is the recorded pEC50 at or above 7?
not satisfied

Hi team, for COc1cc2c(c(OC)c1O)-c1ccc(OC)c(=O)cc1C(NC(=O)C(F)(F)F)CC2 (centres undefined) , is the recorded pEC50 at or above 7?
satisfied

====

tested on: J774; experiment: Cytotoxic activity against mouse macrophage cell line J7.VBL-1; format: functional; conditions: read-out: ED50 (the source's name)
Field: label. Allowed values: 1 (EC50 < 3 µM) or 0 (EC50 >= 3 µM).

compound: COc1cc2c(c(OC)c1OC)-c1ccc(OC)c(=O)cc1[C@@H](NC(=O)C(F)(F)F)CC2
group: 1
--
compound: COc1cc2c(c(OC)c1O)-c1ccc(OC)c(=O)cc1C(NC(=O)C(F)(F)F)CC2 (centres undefined)
group: 0
--
compound: CC/N=c1/ccc2c(cc1O)C(NC(C)=O)CCc1cc(OC)c(OC)c(OC)c1-2 (centres undefined)
group: 1

Bench note: check whether COc1cc2c(c(OC)c1OC)-c1ccc(=N)c(O)cc1C(NC(=O)C(F)(F)F)CC2 (centres undefined) shows EC50 below 3 µM
1

Bench note: check whether COc1cc2c(c(OC)c1OC)-c1cc/c(=N/CCF)c(O)cc1C(NC(C)=O)CC2 (centres undefined) shows EC50 below 3 µM
0

Bench note: check whether COc1cc2c(c(OC)c1O)-c1ccc(OC)c(=O)cc1C(NC(C)=O)CC2 (centres undefined) shows EC50 below 3 µM
0

Bench note: check whether COc1cc2c(c(OC)c1OC)-c1ccc(=O)c(OC)cc1C(NC(C)=O)CC2 (centres undefined) shows EC50 below 3 µM
0

Bench note: check whether COc1cc2c(c(OC)c1OC)-c1ccc(=O)c(OC)cc1C(NC(=O)C(F)(F)F)CC2 (centres undefined) shows EC50 below 3 µM
0

Bench note: check whether COc1cc2c(c(OC)c1OC)-c1cc/c(=N/CC(F)(F)F)c(O)cc1C(NC(C)=O)CC2 (centres undefined) shows EC50 below 3 µM
0
